- Test system: UACC-62 melanoma
- RUN DESCRIPTION: NCI-60 one-dose screen, 48 h
- EXPERIMENTAL SETUP: 10 µM unless noted
About 83,000 compounds went through this panel and 20% of them were active in at least one assay; those are over-represented in the sample as a whole. Activity calls are given as the source filed them. The calls were made as follows: active = growth percent below 10; inactive = the rest.
Allowed answers: active, inactive

The following molecules have reported results that may help.
COc1ccc(N=C2CSc3nnc(-c4cc(F)c(Cl)cc4Cl)n3N2)cc1: inactive
Cc1csc(N/N=C/c2ccncc2)n1: inactive
CCNCCCn1c2c(c3ccc(Cl)cc3c1=O)C(=O)c1cc(OC)cnc1-2: inactive
O=C(CCl)Nc1cc(O)c2c(c1)C(=O)c1cccc(O)c1C2=O: active
Fc1ccc(-c2nc(-c3ccc(-c4nc5ccc(F)cc5[nH]4)cc3)no2)cc1: inactive

With those in mind, consider the next molecule.
## Input Field: outcome | Entry: Cc1cccc(N=NC(=S)NNc2cccc(C)c2)c1
## Output inactive

----------
- System: CCRF-CEM leukemia
- RUN DESCRIPTION: NCI-60 one-dose screen, 48 h (100 = growth as untreated, 0 = no growth, -100 = all killed)
- EXPERIMENTAL SETUP: 10 µM unless noted
About 83,000 compounds went through this panel and 20% of them were active in at least one assay; those are over-represented in the sample as a whole. Calls of active or inactive are those of the source. The calls were made as follows: active = growth percent below 10; inactive = the rest.
Readings of growth for the listed compounds

CC(=O)O[C@H]1CC[C@]2(C)[C@H]3CC=C4[C@@H]5CC(C)(C)CC[C@]5(C(=O)OCC(COC(=O)C(Cl)Cl)(COC(=O)C(Cl)Cl)NC(=O)C(Cl)Cl)CC[C@@]4(C)[C@]3(C)CC[C@H]2C1(C)C: 64.8% (inactive)
O=C1SCN(Cc2ccccc2)CN1Cc1ccccc1: 61.3% (inactive)

Kindly consider the entry below.
## Input Need growth of COc1ccc(/C(C)=N/NC(=O)c2ccc(S(C)(=O)=O)cc2)cc1OC , thanks.
## Output 115% (inactive)

----------
- Tested on: NCI-H522 lung
- RUN DESCRIPTION: NCI-60 one-dose screen, 48 h (100 = growth as untreated, 0 = no growth, -100 = all killed)
- EXPERIMENTAL SETUP: 10 µM unless noted
Compounds without any hit were thinned out: in the full panel of roughly 83,000, 20% have a hit.
READOUT NAME: growth (%)
Give just the number in %; leave the unit off.

Field: example entries. Status: answers known.
O=C(N/N=C/c1ccccc1O)c1ccncc1: -20
CC(C)(C)c1nn(-c2ccccc2)c2c1C(=O)CSC(c1ccc3c(c1)OCO3)N2 (stereo not given): 89.7
CS(=O)(=O)c1ccc(C(=O)N/N=C/c2ccc3c(c2)OCO3)cc1: 86

## Input Need growth of COC(=O)c1ccc2c(c1)nc(-c1cc3ccccc3[nH]c1=O)n2-c1cc(C(C)(C)C)[nH]n1 , thanks.
## Output -2.05

## Input Query CC(C)CCSc1nc(-c2ccc(F)cc2)c(C#N)c(N2CCCCC2)n1 next
## Output 78.8

----------
- System: U251 CNS
- RUN DESCRIPTION: NCI-60 one-dose screen, 48 h (100 = growth as untreated, 0 = no growth, -100 = all killed)
- EXPERIMENTAL SETUP: 10 µM unless noted
Compounds without any hit were thinned out: in the full panel of roughly 83,000, 20% have a hit. Active and inactive are the calls of the source. How the source made its calls: active means growth percent below 10; inactive means the rest.
Readings of growth for the listed compounds

Field: example entries. Status: answers known.
N/C(=C\C(=O)n1nc(-c2ccccc2)cc1N)c1ccccc1: 36.7% (inactive)
CCOC(=O)c1ccc2c(c1)nc(-c1ccc(Cl)cc1)n2-c1cc(C(C)(C)C)[nH]n1: 33.6% (inactive)
O/N=C/c1ccncc1: 102% (inactive)

Kindly consider the entry below.
## Input Need growth of CC[C@]1(O)C[C@H]2CN(CCc3c([nH]c4ccccc34)C(C(=O)OC)(c3cc4c(cc3OC)N(C)[C@H]3[C@@](O)(C(=O)OC)[C@H](OC(C)=O)[C@]5(CC)[C@@H]6C[C@@H]6CN6CC[C@]43[C@@H]65)C2)C1 (some centres undefined) , thanks.
## Output 13.7% (inactive)
